Tested on: PKAC-beta;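 note: KINOMEscan kinase panel screen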
Construct: gene PRKACB
conditionSet: concentration: 1 μM, replicates: in singlicate; n = 1
Listed compounds paired with reported %Inh
readout: %Inh (%)

> print(dat)
                                    compound  numericreadout
 1  CCC(=O)c1c(-c2ccccc2)c2cc(Cl)ccc2c(=O)n1Cc1cc(S(C)(=O)=O)n(CCC(C)(C)O)n1               0
 2  COc1cccc(C2=C(Nc3cccc(C(=O)O)c3)C(=O)NC2=O)c1               0
 3              Nc1n[nH]c2ncc(-c3ccccc3)cc12               0
 4  COc1cc2nccc(Nc3ccc(OCc4ccc(NC(C)=O)cc4)cc3)c2cc1OC.Cl               0
 5  Cl.NS(=O)(=O)c1cccc(Nc2cc(-c3ccc(F)cc3)n[nH]2)c1               0
 6  COc1ccc(CNC(=O)NC2CCN(c3ccnc(Nc4ccc(F)cc4)n3)C2)cc1 (stereo not shown)               0
 7  O=C(NCc1cccs1)c1cc(C(=O)c2c(Cl)cccc2Cl)c[nH]1               3
 8  CCc1ccc(-c2ccc3c(c2)-c2nn(C)cc2S(=O)(=O)N3C)cc1               0
 9  COc1cccc(C2=C(N(C)c3ccccc3)C(=O)NC2=O)c1               0
10  O=C(Nc1ccc2c(c1)OCO2)NC1CCN(c2ccnc(NCc3ccc(F)cc3)n2)CC1               0
11                CCn1c(-c2nonc2N)nc2ccccc21               0
12  COc1ccc(-c2cc3c(C)nc(N)nc3n([C@H]3CC[C@H](O)CC3)c2=O)cn1               0
13  Cc1cc(Nc2nc(-c3cccc(C)n3)nc3ccccc23)ccn1               0
14  COc1cc2ncn(-c3cc(OCc4ccc(S(C)(=O)=O)cc4)c(C(N)=O)s3)c2cc1OC               0
15  CCC(=O)c1c(-c2ccccc2)c2cc(Cl)ccc2c(=O)n1Cc1cc(S(C)(=O)=O)n(CC(F)F)n1               0
16  COc1cc2ncn(-c3cc(OCCCc4ccccc4)c(C(N)=O)s3)c2cc1OC               5
17    CN(C)c1cc(-c2ccc3c(N)n[nH]c3c2)nc(N)n1               0
18     Nc1nc(-c2ccccc2F)c(-c2ccnc3ccccc23)s1               3
19  COc1cc(Nc2ccnc3ccc(C(F)(F)F)cc23)cc(OC)c1OC               4
20  Cn1c(=O)c(F)c(Nc2ccc(I)cc2F)c2c(=O)n(OC[C@H](O)CO)cnc21              35
21  Nc1nccc2scc(-c3ccc4c(c3)CCN4C(=O)Cc3ccccc3)c12               0
22  COc1ccc(-c2cc3c(C)nc(N)nc3n([C@H]3CC[C@H](OCCO)CC3)c2=O)cn1               0
23  Cc1cccc(-c2cc(-c3c[nH]nc3-c3ccccn3)ccn2)c1               0
24     CCCNC(=O)Nc1ccc(Oc2ncnc3ccn(C)c23)cc1               0
25  COc1cc(Nc2nccc(N3CCC(NC(=O)C4COc5ccccc5O4)C3)n2)cc(OC)c1OC (stereo not shown)               0
26  CCS(=O)c1ccc(-c2coc3ccc(-c4nnc(C)o4)cc23)cc1 (stereo not shown)              18
27  COc1cc(OC)cc(-c2cc3cnc(N)nc3nc2NC(=O)NC(C)(C)C)c1               0
28  O=C(Nc1n[nH]c2nc(-c3ccccc3)c(Br)cc12)C1CC1               2
29  Cc1ccccc1COc1cc(-n2cnc3cc(Cl)ccc32)sc1C(N)=O              21
30  Cc1ccc(Oc2ccc(Nc3ncnc4cc[nH]c34)cc2C)cn1               0
31  Cc1cccc(-c2nc(Nc3ccc4c(cnn4C)c3)c3ccccc3n2)n1              14
32  COC(=O)c1c(-c2ccccc2)c2cc(C)ccc2c(=O)n1Cc1ccccc1               0
33  COc1cc2ncn(-c3cc(OCc4ccncc4Br)c(C(N)=O)s3)c2cc1OC               0
34  CCC(=O)c1c(-c2ccccc2)c2cc(Cl)ccc2c(=O)n1Cc1ccc(C(=O)O)cc1               0
35  O=c1cc(N2CCOCC2)nc2n(Cc3ccc(F)c(Cl)c3)ccn12               0
36      CN1C(=O)C(Nc2ccccc2)=C(c2ccccc2)C1=O               0
37             Nc1ncnc2c1ncn2-c1cccc2ccccc12               0
